- system-tested: T1, HLA-B*44:05 (human)
- T1 construct: also called peptide-receptive MHC class I molecule
- experiment-description: UV peptide exchange, anti-b2m ELISA
The binders listed here are annotated with their peptide exchange yield.

Check out these entries, answers already filled in.
        binder            readout_name        val
0    SDDLRNVTW  peptide exchange yield      > 75%
1  AAFEDAQGHIW  peptide exchange yield      > 75%
2    SETILAVGL  peptide exchange yield  50 to 75%
3   EECGKAFSVF  peptide exchange yield  50 to 75%
4    RELVHMINW  peptide exchange yield      > 75%
5    AEREQVIKL  peptide exchange yield      > 75%
6    SESDLVNFI  peptide exchange yield  50 to 75%
7   HEATFGEKRF  peptide exchange yield  50 to 75%

Now look at this one.
Query: Bench note: what peptide exchange yield did `IEQADWPEI` show?
Response: 20 to 50%
